Values from patent US12384753B2

# target.or.test.system: Recombinant human HSD17B13 (Homo sapiens (Human))
# Sequence (Q7Z5P4 20-300): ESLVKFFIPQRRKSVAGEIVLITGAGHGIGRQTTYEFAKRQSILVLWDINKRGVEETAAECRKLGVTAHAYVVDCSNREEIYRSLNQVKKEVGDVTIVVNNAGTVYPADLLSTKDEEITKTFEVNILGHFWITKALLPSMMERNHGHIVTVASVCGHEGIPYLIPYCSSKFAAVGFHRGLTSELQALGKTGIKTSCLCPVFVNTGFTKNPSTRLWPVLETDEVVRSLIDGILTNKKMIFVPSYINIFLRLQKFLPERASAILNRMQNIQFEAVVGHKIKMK
# assay.protocol: HSD17B13 rapid-fire mass spectrometry assay (RF/MS assay)
# settings: inhibition of HSD17B13; LTB4 10 μM, NAD+ 0.5 mM, RT 3 h; IC50 ranges A-E
pIC50: −log10 of the molar value.
// reported pIC50 for each item listed

Enquiry: Which pIC50 is reported for this compound? "COc1cc(C(=O)O)ccc1NS(=O)(=O)N1Cc2nc(-c3ccc(C4CCC(C)(C)CC4)cc3)sc2C1"
Return: 6.30 to 7.00

Enquiry: Which pIC50 is reported for this compound? "Cc1nc(S(=O)(=O)Nc2ccc(C(=O)O)cc2)cs1"
Return: 4.00 to 6.00

Enquiry: Which pIC50 is reported for this compound? "COc1cc(C(=O)O)ccc1NS(=O)(=O)c1coc(-c2ccc(OC(F)(F)F)cc2)n1"
Return: > 7.00

Enquiry: Which pIC50 is reported for this compound? "COc1cc(C(=O)O)ccc1NS(=O)(=O)c1ccc2sc(-c3ccc(C4CCC(C)(C)CC4)cc3)nc2c1"
Return: 4.00 to 6.00

Enquiry: Which pIC50 is reported for this compound? "COc1cc(C(N)=O)ccc1NS(=O)(=O)c1cnc(-c2ccc(F)cc2)s1"
Return: 4.00 to 6.00

Enquiry: Which pIC50 is reported for this compound? "CCCCC[C@H]1CC[C@H](c2ccc(-c3nc(S(=O)(=O)Nc4ccc(C(=O)O)cc4OC)cs3)c(F)c2)CC1"
Return: 6.30 to 7.00

Enquiry: Which pIC50 is reported for this compound? COc1cc(C(=O)O)c(F)cc1NS(=O)(=O)c1csc(-c2ccc(C3=CCC(C(C)(C)C)CC3)c(OC(C)C)c2F)n1 (stereo not shown)
Return: > 7.00

Enquiry: Which pIC50 is reported for this compound? "COc1cc(C(=O)O)c(F)cc1NS(=O)(=O)c1csc(-c2ccc(-c3ccc(C45CC6C[C@H](C4)C[C@H](C6)C5)cc3)cc2F)n1"
Return: > 7.00

Enquiry: Which pIC50 is reported for this compound? "COc1cc(C(=O)O)ccc1NS(=O)(=O)c1csc(-c2ccc(C3CCC(C)(C)CC3)cc2)n1"
Return: > 7.00

Enquiry: Which pIC50 is reported for this compound? "Cc1cc(NS(=O)(=O)c2cnc(-c3ccc(F)cc3)s2)ccc1C(=O)O"
Return: 6.00 to 6.30
